Hi there, I'd appreciate the recorded efflux ratio at 120 min, 5 μM for every entry that follows.
test system: MDR1 (P-gp); assay: MDCK-MDR1 permeability assay, blood-brain-barrier penetration potential; details: dog, MDCK-MDR1, pH 7.4, MDCK-MDR1 Efflux Ratio
Answer field: number only, no words.

What value of measured efflux ratio at 120 min, 5 μM is listed for CN(c1cnc(-c2ccc(-c3cc(=O)n(C)cn3)cc2O)cn1)[C@H]1C[C@@H]2CCC(N2)[C@H]1F (single isomer, unassigned) ? 15

Now consider COc1cc(-c2ccc(-c3cnc(N(C)[C@H]4C[C@]5(C)CCC[C@@](C)(N5)[C@H]4F)cn3)c(O)c2)cnn1 and answer again. 2

Now consider CN(c1cnc(-c2ccc(C3=CC(=O)NC3)cc2O)cn1)[C@@H]1CC2CC[C@H](N2)[C@@H]1F (single isomer, unassigned) and answer again. 53

###

test system: MDR1 (P-gp); assay: MDCK-MDR1 permeability assay, blood-brain-barrier penetration potential; conditions: dog, MDCK-MDR1, pH 7.4, MDCK-MDR1 Efflux Ratio
Hi there, I'd appreciate the recorded efflux ratio at 120 min, 5 μM for every entry that follows.
Answer field: number only, no words.

What value of measured efflux ratio at 120 min, 5 μM is listed for COc1cc(-c2ccc(-c3cnc(N(C4CC4)[C@@H]4CC5CC[C@H](N5)[C@@H]4F)cn3)c(O)c2)ccn1 (single isomer, unassigned) [Compound 51E1] ? 2

Now consider CN(c1cnc(-c2cc3ccc(OCF)nc3cc2O)cn1)[C@H]1C[C@@H]2CCC(N2)[C@H]1F (single isomer, unassigned) [Compound 19E2] and answer again. 6

Now consider COc1cc(-c2ccc(-c3cnc(N(C)[C@H]4C[C@@H]5CCC(N5)[C@H]4F)cn3)c(O)c2)ccn1 (single isomer, unassigned) [Compound 43E2] and answer again. 1

###

system: MDR1; assay: in vitro; conditions: dog, MDCK-MDR1, pH 7.4, MDCK-MDR1: Papp B-A (10^−6, cm/s)
observed property: Papp B→A at 120 min, 5 μM (×10⁻⁶ cm/s)
Give the number; ×10⁻⁶ cm/s is assumed, so skip it.

What value of measured Papp B→A at 120 min, 5 μM is listed for CN(c1cnc(-c2ccc(-c3ccn(C)c(=O)c3)cc2O)cn1)[C@H]1C[C@@H]2CCCC(N2)[C@H]1F (single isomer, unassigned) [Compound 83E2] ? 45

Now consider COc1cc(-c2ccc(-c3cnc(N(C4CC4)[C@@H]4CC5CC[C@H](N5)[C@@H]4F)cn3)c(O)c2)ncn1 (single isomer, unassigned) [Compound 56E1] and answer again. 7.91

Now consider Cn1cc(-c2cc(O)c(-c3cnc(N(C4CC4)[C@H]4C[C@@H]5CCC(N5)[C@H]4F)cn3)cc2F)cn1 (single isomer, unassigned) [Compound 35E2] and answer again. 17.9

Now consider CN(c1cnc(-c2cc3ccc(OCF)nc3cc2O)cn1)[C@H]1C[C@@H]2CCC(N2)[C@H]1F (single isomer, unassigned) [Compound 19E2] and answer again. 17.1

Now consider CN(c1cnc(-c2cc(F)c(-c3ccn(C)c(=O)c3)cc2O)cn1)[C@@H]1CC2CCC[C@H](N2)[C@@H]1F (single isomer, unassigned) [Compound 12E1] and answer again. 54.9

###

Hi there, I'd appreciate the recorded MDCK-MDR1: % Recov A-B (%) for every entry that follows.
test system: MDR1-MDCK cell monolayers; conditions: dog, MDCK-MDR1, 120 min, 5 μM, pH 7.4
The answer consists of two parts: a number and, after it, its unit.

What value of measured MDCK-MDR1: % Recov A-B (%) is listed for COc1cc(-c2ccc(-c3cnc(N(C4CC4)[C@H]4C[C@@H]5CCC(N5)[C@H]4F)cn3)c(O)c2)cc(F)n1 (single isomer, unassigned) ? 12%

Now consider CN(c1cnc(-c2ccc(-c3cnn(C)c3)cc2O)cn1)[C@@H]1CC2N[C@H](C1)CC2(F)F (single isomer, unassigned) and answer again. 64%

Now consider CN(c1cnc(-c2cc(F)c(-n3ccnn3)cc2O)cn1)[C@H]1C[C@@H]2CCC(N2)[C@H]1F (single isomer, unassigned) and answer again. 78%

Now consider CN(c1cnc(-c2ccc(-c3ccn(C)c(=O)c3)cc2O)cn1)[C@@H]1CC2CC[C@H](N2)[C@@H]1F (single isomer, unassigned) and answer again. 88%

Now consider Cn1ccc(-c2ccc(-c3cnc(N(C4CC4)[C@@H]4CC5CC[C@H](N5)[C@@H]4F)cn3)c(O)c2)cc1=O (single isomer, unassigned) and answer again. 71%

Now consider Oc1cc(-c2cn[nH]c2)ccc1-c1cnc(O[C@@H]2C[C@H]3CCC(N3)[C@@H]2F)cn1 (single isomer, unassigned) and answer again. 66%

Now consider COc1cc(-c2ccc(-c3cnc(N(C)[C@@H]4C[C@@]5(C)CC[C@](C)(N5)[C@@H]4F)cn3)c(O)c2)cnn1 and answer again. 45%

Now consider CN(c1cnc(-c2ccc(-c3cnn(C)c3)cc2O)cn1)[C@@H]1C[C@H]2CCC[C@H](N2)[C@@H]1F and answer again. 44%

Now consider COc1cc(-c2ccc(-c3cnc(N(C)[C@H]4C[C@@H]5CCC(N5)[C@H]4F)cn3)c(O)c2)ncn1 (single isomer, unassigned) and answer again. 28%

Now consider COc1cc(-c2cc(O)c(-c3cnc(N(C)[C@H]4C[C@@H]5CCC(N5)[C@H]4F)cn3)cc2F)ccn1 (single isomer, unassigned) and answer again. 10%

Now consider CN(c1cnc(-c2ccc(-c3nnco3)cc2O)cn1)[C@H]1C[C@@H]2CCC(N2)[C@H]1F (single isomer, unassigned) and answer again. 73%

Now consider COc1cc(-c2cc(O)c(-c3cnc(N(C4CC4)[C@@H]4CC5CC[C@H](N5)[C@@H]4F)cn3)cc2F)cc(F)n1 (single isomer, unassigned) and answer again. 18%

###

tested on: MDR1-MDCK cell monolayers; details: dog, MDCK-MDR1, 120 min, 5 μM, pH 7.4
Hi there, I'd appreciate the recorded MDCK-MDR1: % Recov B-A (%) for every entry that follows.
Give the number; % is assumed, so skip it.

What value of measured MDCK-MDR1: % Recov B-A (%) is listed for CN(c1cnc(-c2ccc(-c3cn[nH]c3)cc2O)cn1)[C@@H]1C[C@@]2(C)CC[C@H](N2)[C@@H]1F [Compound 28E4] ? 84

Now consider CN(c1cnc(-c2ccc(-c3cnn(C)c3)cc2O)cn1)[C@H]1C[C@@H]2COCC(N2)[C@H]1F (single isomer, unassigned) [Compound 73E2] and answer again. 74

Now consider CN(c1cnc(-c2ccc(C3=CC(=O)NC3)cc2O)cn1)[C@@H]1CC2CC[C@H](N2)[C@@H]1F (single isomer, unassigned) [Compound 78E1] and answer again. 85

Now consider CN(c1cnc(-c2ccc(-c3ccn(C)c(=O)c3)cc2O)cn1)[C@@H]1CC2CC[C@H](N2)[C@@H]1F (single isomer, unassigned) [Compound 45E1] and answer again. 85

Now consider COc1cc(-c2ccc(-c3cnc(N(C)[C@@H]4CC5CC[C@H](N5)[C@@H]4F)cn3)c(O)c2)ncn1 (single isomer, unassigned) [Compound 48E1] and answer again. 44

Now consider CN(c1cnc(-c2ccc(-c3cn[nH]c3)cc2O)cn1)[C@H]1C[C@@H]2CCC(N2)[C@@H]1F (single isomer, unassigned) [Compound 27E2] and answer again. 85

Now consider CN(c1cnc(-c2ccc(-c3cnn(CF)c3)cc2O)cn1)[C@@H]1CC2CC[C@H](N2)[C@@H]1F (single isomer, unassigned) [Compound 42E1] and answer again. 59

Now consider CN(c1cnc(-c2ccc(-c3cnn(C)c3)cc2O)cn1)[C@@H]1CC2N[C@H](C1)CC2(F)F (single isomer, unassigned) [Compound 10E2] and answer again. 67

Now consider CN(c1cnc(-c2ccc(-c3cn[nH]c3)cc2O)cn1)[C@H]1CC2CCC[C@@H](N2)[C@H]1F (single isomer, unassigned) [Compound 6E2] and answer again. 58

Now consider COc1cc(-c2ccc(-c3cnc(N(C4CC4)[C@H]4C[C@@H]5CCC(N5)[C@H]4F)cn3)c(O)c2)ccn1 (single isomer, unassigned) [Compound 51E2] and answer again. 34

Now consider CNC(=O)c1cc(O)c(-c2cnc(N(C)[C@H]3C[C@@H]4CCC(N4)[C@H]3F)cn2)cc1F (single isomer, unassigned) [Compound 15E2] and answer again. 86

Now consider CNC(=O)/C=C/c1cc(O)c(-c2cnc(N(C)[C@@H]3C[C@@]4(C)CC[C@](C)(N4)[C@@H]3F)cn2)cc1F [Compound 61E1] and answer again. 95

###

tested on: MDR1 (P-gp); assay: MDCK-MDR1 permeability assay, blood-brain-barrier penetration potential; conditions: dog, MDCK-MDR1, pH 7.4, MDCK-MDR1 Efflux Ratio
# note: boundary value 4 maps to not satisfied; efflux ratio at 120 min, 5 μM below it maps to satisfied

Quick check: does CN(c1cnc(-c2ccc(-c3cnn(CF)c3)cc2O)cn1)[C@@H]1CC2CC[C@H](N2)[C@@H]1F (single isomer, unassigned) have efflux ratio at 120 min, 5 μM under 4? not satisfied

Now consider COc1cc(-c2cc(O)c(-c3cnc(N(C)[C@H]4C[C@@H]5CCC(N5)[C@H]4F)cn3)cc2F)ccn1 (single isomer, unassigned) and answer again. satisfied

Now consider CNC(=O)/C=C/c1cc(O)c(-c2cnc(N(C3CC3)[C@@H]3C[C@@]4(C)CC[C@](C)(N4)[C@@H]3F)cn2)cc1F and answer again. not satisfied

Now consider CN(c1cnc(-c2ccc(-c3ccn(C)c(=O)c3)cc2O)cn1)[C@H]1CC2CCC[C@@H](N2)[C@H]1F (single isomer, unassigned) and answer again. not satisfied

Now consider CN(c1cnc(-c2cc(F)c(-c3ccn(C)c(=O)c3)cc2O)cn1)[C@@H]1CC2CC[C@H](N2)[C@@H]1F (single isomer, unassigned) and answer again. not satisfied

Now consider CN(c1cnc(-c2ccc(-c3ccn(C)c(=O)c3)cc2O)cn1)[C@H]1C[C@@H]2CCC(N2)[C@H]1F (single isomer, unassigned) and answer again. not satisfied

Now consider Cn1cnc(-c2cc(O)c(-c3cnc(N(C4CC4)[C@@H]4CC5CC[C@H](N5)[C@@H]4F)cn3)cc2F)cc1=O (single isomer, unassigned) and answer again. not satisfied

Now consider COc1cc(-c2ccc(-c3cnc(N(C)[C@@H]4CC5COC[C@H](N5)[C@@H]4F)cn3)c(O)c2)cnn1 (single isomer, unassigned) and answer again. not satisfied

Now consider CN(c1cnc(-c2ccc(-c3cnn(C)c3)cc2O)cn1)[C@@H]1CC2CC(F)(F)[C@@H](C1)N2 (single isomer, unassigned) and answer again. satisfied
